All values here come from PubChem BioAssay (NCI).

- Tested on: M14 melanoma
- testSummary: NCI-60 one-dose screen, 48 h
- assaySetup: 10 µM
This is part of a sample that, as a whole, favours compounds with a hit. Of some 83,000 tested, about 20% had one in any assay. The source made the active and inactive calls. How the source made its calls: active means growth percent below 10; inactive means the rest.
// allowed return values: T = active, F = inactive

Task: In this assay, the call recorded for CN1C(=O)N(C)C2SC(N/N=C/c3ccccc3)=NC21 (centres undefined) was what?
Output: F

Task: GET /call?item= CC1(c2ccccc2)NC(=O)N(CC(=O)Nc2ccc(C(=O)/C=C/C=C/c3ccccc3)cc2)C1=O (centres undefined) returns the recorded outcome of this test.
Output: F

Task: Entry "CC(=O)Nc1ccc(-c2cn(-c3cccc(C(=O)Nc4ccc(Cl)c(C(F)(F)F)c4)c3)nn2)cn1" : call = ?
Output: T

Task: Test call, this compound: "O=C1Nc2cc(Cl)ccc2/C1=C/c1cccc(OCc2ccccc2)c1"
Output: T

Task: Hi, sorry to bother you, what did the test record for "Cc1cccc(-c2nc(Nc3ccccc3C(=O)O)c3ccccc3n2)c1" ?
Output: F

Task: Dear all, I need the recorded test outcome for "Cc1cc(=O)oc2cc(OCCCCOc3ccc(/C=C/C(=O)Nc4ccc(F)c(Cl)c4)cc3)ccc12" , thank you.
Output: F

Task: Please let me know the test result on file for "CN1C(=O)/C(=C/c2ccc3ncsc3c2)NC1=NC12CC3CC(CC(O)(C3)C1)C2" .
Output: F

Task: How did this test come out for "CC1(C)CC[C@]2(C(=O)N3CCOCC3)CC[C@]3(C)C(=CC[C@@H]4[C@@]5(C)CC[C@H](NCO)C(C)(C)[C@@H]5CC[C@]43C)[C@H]2C1" ?
Output: T

Task: State the result this test recorded for CC1=C(c2cc(-c3ccc(Cl)cc3)c(C#N)c(N)n2)C(c2ccccc2)NC(=S)N1 (centres undefined) .
Output: F

Task: Fill in: this test's call for "COc1ccc2[nH]c(=O)c(CSc3nccc(-c4ccc(Cl)cc4)n3)cc2c1" is ___
Output: F

Task: Please share the test call associated with O=C1CCC(N2Cc3cc(CC(=O)Nc4ccc(N5CCCCC5)cc4)ccc3C2=O)C(=O)N1 (centres undefined) .
Output: F

Task: Record request — test call for "Cc1noc2c(Cc3ccccc3)nn(CC(=O)N/N=C/c3ccc(Br)cc3)c(=O)c12"
Output: F

Task: Fill in: this test's call for "CC(=O)c1cc(C(=O)c2ccc3c(c2)NC(=O)CO3)n2ccc3ccccc3c12" is ___
Output: F

Task: Record request — test call for CN1C(=O)N(C)C2SC(N/N=C/c3ccc(F)cc3)=NC21 (centres undefined)
Output: F
